Data origin: patent US20250270287A1

- STUDY_TARGET: T1, Activin A (UniProt P08476 311-426)
- T1 sequence (looked up): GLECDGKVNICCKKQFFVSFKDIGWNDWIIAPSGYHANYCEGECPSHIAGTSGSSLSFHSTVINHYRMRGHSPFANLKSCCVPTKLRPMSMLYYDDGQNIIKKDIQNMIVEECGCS
- TEST_DESCRIPTION: cell-based or functional assay
MEASURED_ATTRIBUTE: IC50, SBE-luciferase reporter in HEK293 cells (µg/mL)
Write the number in µg/mL without appending the unit.

Query: // returns reported IC50, SBE-luciferase reporter in HEK293 cells for input ActRIIB-A5 (SEQ ID NO: 123) chimera-Fc protein (Fc fusion, Tested as chimera-Fc protein; not shown: linker (if any) and Fc domain) GRGEAETRECIYYNANWELERTNQSGLERCEGEQDKRLHCYASWRNSSGTIELVKKGCWLDDINCYDRTDCVATEENPQVYFCCCEGNFCNERFTHLPEAGGPEVTYEPPPTAPT
Result: 0.057

Query: Next: ActRIIB-B1B7 (SEQ ID NO: 116) chimera-Fc protein (Fc fusion, Tested as chimera-Fc protein; not shown: linker (if any) and Fc domain) GRGEAETRECLFFNANWELERTNQSGLERCEGEQDKRLHCYASWRNSSGTIELVKKGCWLDDFNCYDRQECVATEENPQVYFCCCEGNFCNEKFSYFPEAGGPEVTYEPPPTAPT
Result: 0.094

Query: Next: ActRIIB-B1B2B3B4 (SEQ ID NO: 119) chimera-Fc protein (Fc fusion, Tested as chimera-Fc protein; not shown: linker (if any) and Fc domain) GRGEAETRECLFFNANWELERTNQTGVEPCEGEQDKRRHCFATWKNISGSIEIVKQGCWLDDFNCYDRQECVATEENPQVYFCCCEGNFCNERFTHLPEAGGPEVTYEPPPTAPT
Result: 0.13

Query: Next: ActRIIB-A2 (SEQ ID NO: 121) chimera-Fc protein (Fc fusion, Tested as chimera-Fc protein; not shown: linker (if any) and Fc domain) GRGEAETRECIYYNANWEKDRTNQSGLERCEGEQDKRLHCYASWRNSSGTIELVKKGCWLDDFNCYDRQECVATEENPQVYFCCCEGNFCNERFTHLPEAGGPEVTYEPPPTAPT
Result: 0.078
